target: αLβ2/ICAM-1 (Homo sapiens, UniProt P05107+P20701); construct: The Jurkat (VCAM-1 assays) and HSB (ICAM-1 assays) cell lines were obtained from American Type Culture Collection; endogenous in cells; host or cells: HSB (ATCC); assay: Static cell adhesion assay, HSB cells on ICAM-1 (LFA-1; LAD); format: cell-based; details: RFU of compound / RFU of THI0349, both at the same concentration
Sequence (P20701 26-1170): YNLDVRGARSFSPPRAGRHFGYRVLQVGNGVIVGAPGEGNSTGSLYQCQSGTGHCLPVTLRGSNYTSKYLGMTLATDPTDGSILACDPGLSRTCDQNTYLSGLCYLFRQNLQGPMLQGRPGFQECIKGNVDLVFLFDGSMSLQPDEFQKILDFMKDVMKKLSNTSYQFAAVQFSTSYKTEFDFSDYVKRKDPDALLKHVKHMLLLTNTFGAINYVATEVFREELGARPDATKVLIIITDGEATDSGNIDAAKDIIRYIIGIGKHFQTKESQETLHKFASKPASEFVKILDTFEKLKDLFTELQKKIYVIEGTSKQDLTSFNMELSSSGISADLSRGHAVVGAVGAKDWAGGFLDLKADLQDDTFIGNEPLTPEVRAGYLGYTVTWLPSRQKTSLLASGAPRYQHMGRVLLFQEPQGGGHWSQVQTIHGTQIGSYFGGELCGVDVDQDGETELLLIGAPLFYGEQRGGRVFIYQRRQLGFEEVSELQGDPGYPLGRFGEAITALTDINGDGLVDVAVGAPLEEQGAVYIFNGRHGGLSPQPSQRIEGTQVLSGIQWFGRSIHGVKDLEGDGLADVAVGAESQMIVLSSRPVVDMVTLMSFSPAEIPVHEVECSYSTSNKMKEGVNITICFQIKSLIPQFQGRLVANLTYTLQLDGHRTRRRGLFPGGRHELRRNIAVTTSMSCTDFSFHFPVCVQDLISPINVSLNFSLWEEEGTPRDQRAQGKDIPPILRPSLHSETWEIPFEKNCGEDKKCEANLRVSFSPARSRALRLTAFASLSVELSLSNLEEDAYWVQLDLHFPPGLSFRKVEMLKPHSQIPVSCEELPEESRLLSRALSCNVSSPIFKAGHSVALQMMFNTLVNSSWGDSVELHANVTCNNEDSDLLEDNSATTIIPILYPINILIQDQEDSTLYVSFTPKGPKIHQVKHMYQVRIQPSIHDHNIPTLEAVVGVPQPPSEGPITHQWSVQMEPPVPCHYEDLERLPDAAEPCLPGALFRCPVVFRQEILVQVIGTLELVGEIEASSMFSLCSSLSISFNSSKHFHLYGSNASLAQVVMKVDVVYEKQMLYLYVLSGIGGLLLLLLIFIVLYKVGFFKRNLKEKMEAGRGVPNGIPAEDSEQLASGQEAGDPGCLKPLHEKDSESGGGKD
Sequence (P05107 23-769): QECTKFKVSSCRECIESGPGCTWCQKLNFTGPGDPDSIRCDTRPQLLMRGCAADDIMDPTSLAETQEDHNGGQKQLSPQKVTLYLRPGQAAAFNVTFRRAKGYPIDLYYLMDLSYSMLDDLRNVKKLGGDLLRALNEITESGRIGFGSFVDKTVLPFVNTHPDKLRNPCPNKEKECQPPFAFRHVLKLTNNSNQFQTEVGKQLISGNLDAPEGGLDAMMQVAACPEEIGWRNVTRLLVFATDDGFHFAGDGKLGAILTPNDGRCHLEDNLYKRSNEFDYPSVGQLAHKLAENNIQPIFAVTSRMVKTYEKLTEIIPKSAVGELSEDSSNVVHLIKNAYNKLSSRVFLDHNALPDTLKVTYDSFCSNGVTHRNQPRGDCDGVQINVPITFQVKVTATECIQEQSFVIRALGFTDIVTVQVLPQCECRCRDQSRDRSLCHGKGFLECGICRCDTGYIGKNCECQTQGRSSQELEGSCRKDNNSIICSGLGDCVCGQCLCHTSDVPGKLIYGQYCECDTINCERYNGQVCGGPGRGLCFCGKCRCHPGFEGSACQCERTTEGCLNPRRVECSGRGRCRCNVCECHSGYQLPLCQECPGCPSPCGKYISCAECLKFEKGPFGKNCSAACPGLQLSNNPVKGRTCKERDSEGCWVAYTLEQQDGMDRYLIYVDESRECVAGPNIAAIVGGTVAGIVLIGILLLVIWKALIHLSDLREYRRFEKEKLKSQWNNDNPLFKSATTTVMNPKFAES
measured_parameter: LAD Raw Fluorescence Units against LFA-1; Dose 3 µM; Ratio of raw counts Compound/THI0349
Answer with a bare number; do not write a unit.

I have this compound here, COc1cccc(COCc2ccc(N(Cc3cccc(OC)c3)Cc3cccc(OC)c3)cc2)c1 , and I need its recorded LAD Raw Fluorescence Units against LFA-1; Dose 3 µM; Ratio of raw counts Compound/THI0349. 0.34

I have this compound here, COc1cccc(CN(Cc2ccc(-n3cccn3)cc2)c2nc(CN3CCOCC3)cs2)c1 , and I need its recorded LAD Raw Fluorescence Units against LFA-1; Dose 3 µM; Ratio of raw counts Compound/THI0349. 0.59

I have this compound here, CCOC(=O)c1csc(N(Cc2cccc(OC)c2)Cc2cccc(OC)c2)n1 , and I need its recorded LAD Raw Fluorescence Units against LFA-1; Dose 3 µM; Ratio of raw counts Compound/THI0349. 0.5

I have this compound here, COc1cccc(CN(Cc2cccc(OC)c2)c2nc(COCCN(C)C)cs2)c1 , and I need its recorded LAD Raw Fluorescence Units against LFA-1; Dose 3 µM; Ratio of raw counts Compound/THI0349. 0.05
